Sourced from patent US6737383B1

Listing: B. signalgrass plant response rating of selected compounds
system: surinam grass; experiment: Test B pre/postemergence surinam grass; type: in vivo, Brachiaria decumbens; conditions: Preemergence, Rate 62 g/ha; scale 0 to 10 (0 no effect, 10 complete control)
Note: the reply should be a number with no unit written.

# count of solved cases: 5
{"Compound": "CCCCn1c(=O)on(C(=O)N(c2ccccc2)C(C)C)c1=O [Compound 556]", "Readout Value": 6}
{"Compound": "Cc1cccc(C(C)C)c1-n1c(=O)on(C(=O)N(c2ccccc2)C(C)C)c1=O [Compound 66]", "Readout Value": 0}
{"Compound": "CCOC(=O)CC(C(=O)OCC)n1c(=O)on(C(=O)N(c2ccc(F)cc2)C(C)C)c1=O (centres unmarked) [Compound 615]", "Readout Value": 0}
{"Compound": "CC(C)N(C(=O)n1oc(=O)n(C(C)(C)C)c1=O)c1ccccc1 [Compound 129]", "Readout Value": 0}
{"Compound": "CCOCn1c(=O)on(C(=O)N(c2ccc(Cl)cc2)C(C)C)c1=O [Compound 534]", "Readout Value": 9}

get_value(item= CC(C)N(C(=O)n1oc(=O)n(CCC(F)(F)F)c1=O)c1ccc(Cl)cc1 [Compound 554] , readout=B. signalgrass plant response rating) returns 7

Measured B. signalgrass plant response rating, Cc1onc(-c2ccccc2)c1-n1c(=O)on(C(=O)N(c2ccc(F)cc2)C(C)C)c1=O [Compound 100] : 0

Note to self: B. signalgrass plant response rating recorded for CCOC(Cn1c(=O)on(C(=O)N(c2ccc(F)cc2)C(C)C)c1=O)OCC [Compound 629] was 0

----------
Recorded B. signalgrass plant response rating for the following compounds
system: surinam grass; test: Test B pre/postemergence surinam grass; format: in vivo, Brachiaria decumbens; settings: Preemergence, Rate 62 g/ha; scale of 0 to 10 where 0 is no effect and 10 is complete control
Simply state the number, no unit and no words.

{"Compound": "CC(C)N(C(=O)n1oc(=O)[nH]c1=O)c1ccc(F)cc1", "Test Readout": "B. signalgrass plant response rating", "Readout Value": 0}
{"Compound": "CCC=CCn1c(=O)on(C(=O)N(c2ccc(F)cc2)C(C)C)c1=O", "Test Readout": "B. signalgrass plant response rating", "Readout Value": 0}
{"Compound": "CCN(C(=O)n1oc(=O)n(C(C)C)c1=O)c1nncs1", "Test Readout": "B. signalgrass plant response rating", "Readout Value": 0}
{"Compound": "CC(C)N(C(=O)n1oc(=O)n(CC2=NOCCO2)c1=O)c1ccc(F)cc1", "Test Readout": "B. signalgrass plant response rating", "Readout Value": 5}
{"Compound": "CC(C)N(C(=O)n1oc(=O)n(CCN(C)C(=O)c2ccccc2)c1=O)c1ccccc1", "Test Readout": "B. signalgrass plant response rating", "Readout Value": 0}

Data point: CC(C)N(C(=O)n1oc(=O)n(C(C)C2CC2)c1=O)c1ccccc1 (stereo not shown) ; B. signalgrass plant response rating = 8

The compound listed as CC(C)N(C(=O)n1oc(=O)n(CC2CO2)c1=O)c1ccc(F)cc1 (stereo not shown) has a reported B. signalgrass plant response rating of 0

So, Cc1nc(C)c(-n2c(=O)on(C(=O)N(c3ccccc3)C(C)C)c2=O)s1 ? Its B. signalgrass plant response rating was 0

Looking up COc1nc(OC)nc(N(C(=O)n2oc(=O)n(-c3c(C)cccc3C)c2=O)C(C)C)n1 , I found its B. signalgrass plant response rating recorded as 0

The recorded B. signalgrass plant response rating for entry CC(C)N(C(=O)n1oc(=O)n([C@@H](C)c2ccccc2)c1=O)c1ccccc1 equals 0

----------
tested on: soybean; assay: Test B pre/postemergence soybean; format: in vivo, Glycine max; conditions: Rate 250 g/ha, Postemergence; scale of 0 to 10 where 0 is no effect and 10 is complete control
Parameter Plant response rating, Soybean: see the listing below.

{"Mol Smiles": "CCc1cccc(CC)c1-n1c(=O)on(C(=O)N(c2ccccc2)C(C)C)c1=O", "Readout Value": 4}
{"Mol Smiles": "CC(C)N(C(=O)n1oc(=O)n(CCC(F)(F)F)c1=O)c1ccc(Cl)cc1", "Readout Value": 3}
{"Mol Smiles": "CC(C)N(C(=O)n1oc(=O)n(C2CC2)c1=O)c1ccc(F)cc1F", "Readout Value": 6}

Field: next compound
Plant response rating, Soybean measured on COC(=O)CCCn1c(=O)on(C(=O)N(c2ccc(Cl)cc2)C(C)C)c1=O = 2

----------
system: giant foxtail; assay: Test B pre/postemergence giant foxtail; format: in vivo, Setaria faberii; conditions: Preemergence, Rate 62 g/ha; scale 0 to 10 (0 no effect, 10 complete control)
Test Readout: Plant response rating, Giant foxtail

{"Compound": "Cc1nc(Cl)sc1C(C)n1c(=O)on(C(=O)N(c2ccc(F)cc2)C(C)C)c1=O (stereo not shown)", "Test Readout": "Plant response rating, Giant foxtail", "Readout Value": 0}

For record C=C(C)CCn1c(=O)on(C(=O)N(c2ccccc2)C(C)C)c1=O the listed Plant response rating, Giant foxtail is 7

Looking up CC(C)N(C(=O)n1oc(=O)n(N2CCOCC2)c1=O)c1ccc(F)cc1F , I found its Plant response rating, Giant foxtail recorded as 9

// CC(C)N(C(=O)n1oc(=O)n(C(CF)CF)c1=O)c1ccccc1 : Plant response rating, Giant foxtail value = 9

----------
Catalogue of compounds with associated Wheat plant response rating
test system: wheat; assay: Test B pre/postemergence wheat; type: in vivo, Triticum aestivum; details: Preemergence, Rate 250 g/ha; scale of 0 to 10 where 0 is no effect and 10 is complete control
Field format: numeric only.

{"Compound": "CC(=O)OCn1c(=O)on(C(=O)N(c2ccc(F)cc2)C(C)C)c1=O", "Test Readout": "Wheat plant response rating", "Readout Value": 0}
{"Compound": "CC(C)N(C(=O)n1oc(=O)n(CCc2ccccc2)c1=O)c1ccc(F)cc1", "Test Readout": "Wheat plant response rating", "Readout Value": 0}
{"Compound": "COCC(C)N(C(=O)n1oc(=O)n(-c2ccccc2C)c1=O)c1ccc(F)cc1 (stereo not drawn)", "Test Readout": "Wheat plant response rating", "Readout Value": 0}
{"Compound": "CC(C)N(C(=O)n1oc(=O)n(C2CC2)c1=O)c1ccc(F)cc1F", "Test Readout": "Wheat plant response rating", "Readout Value": 8}
{"Compound": "CC(C)N(C(=O)n1oc(=O)n(C2CCCCCC2)c1=O)c1ccc(F)cc1", "Test Readout": "Wheat plant response rating", "Readout Value": 0}

Lab note: next compound to report on.
Field Wheat plant response rating (entry CCC=CCn1c(=O)on(C(=O)N(c2ccc(F)cc2)C(C)C)c1=O ) reads 0

----------
test system: wild oat; assay: Test B pre/postemergence wild oat; format: in vivo, Avena fatua; details: Rate 500 g/ha, Preemergence; scale 0 to 10 (0 no effect, 10 complete control)
Each item that follows carries a reported Wild oats plant response rating.
Output spec: single numeric token, no unit.

{"Compound": "COC1CCC(Cn2c(=O)on(C(=O)N(c3ccc(F)cc3)C(C)C)c2=O)=NO1 (centres unmarked) [Compound 766]", "Readout Value": 10}
{"Compound": "CC(C)N(C(=O)n1oc(=O)n(CC2=NOCCO2)c1=O)c1ccc(F)cc1 [Compound 765]", "Readout Value": 9}
{"Compound": "CCOP(=O)(Cn1c(=O)on(C(=O)N(c2ccc(F)cc2F)C(C)C)c1=O)OCC [Compound 736]", "Readout Value": 9}
{"Compound": "C#CCCn1c(=O)on(C(=O)N(c2ccc(F)cc2)C(C)C)c1=O [Compound 767]", "Readout Value": 9}

Considering CC(C)N(C(=O)n1oc(=O)n(CC(F)F)c1=O)c1ccc(Cl)cc1 [Compound 745] , its Wild oats plant response rating with wild oat was recorded as 8

----------
test system: velvetleaf; test: Test B pre/postemergence velvetleaf; assay type: in vivo, Abutilon theophrasti; settings: Preemergence, Rate 500 g/ha; scale 0 to 10, 0 is no effect, 10 is complete control
Test Readout: Velvetleaf plant response rating
// no unit, no text: just the number

The examples below pair each entry with its known result.
{"Compound": "CC(C)N(C(=O)n1oc(=O)n(CC2CCC2)c1=O)c1ccc(F)cc1", "Velvetleaf plant response rating": 5}
{"Compound": "CC(C)N(C(=O)n1oc(=O)n(CCC(F)(F)F)c1=O)c1ccc(F)cc1", "Velvetleaf plant response rating": 6}
{"Compound": "CCN(C(=O)n1oc(=O)n(C2CCCCCC2)c1=O)C1CCCCC1", "Velvetleaf plant response rating": 0}
{"Compound": "CC(C)N(C(=O)n1oc(=O)n(C(CF)CF)c1=O)c1ccccc1", "Velvetleaf plant response rating": 10}
{"Compound": "CC1CC1Cn1c(=O)on(C(=O)N(c2ccc(F)cc2)C(C)C)c1=O (stereo not drawn)", "Velvetleaf plant response rating": 8}

For this compound ( CC(C)N(C(=O)n1oc(=O)n(COCC[Si](C)(C)C)c1=O)c1ccc(Cl)cc1 ), measured Velvetleaf plant response rating is 1
